methodDescription: Inhibition of alpha-glucosidase (unknown origin) using PNP glycoside as substrate preincubated for 30 mins followed by substrate addition after 60 mins by spectrophotometric analysis
Set-up: species or system Homo sapiens
measureName: IC50 (µM)

(P) COc1ccc(/N=c2\scc(-c3cc4ccccc4oc3=O)n2NC(=O)c2ccc(OC)cc2)cc1
(Q) COc1ccc(/N=c2\scc(-c3cc4ccccc4oc3=O)n2NC(=O)c2ccc(Br)cc2)cc1
(R) CC(C)(C)c1ccc(C(=O)Nn2c(-c3cc4ccccc4oc3=O)cs/c2=N\c2ccc(Cl)c(Cl)c2)cc1
(S) COc1ccc(/N=c2\scc(-c3cc4ccccc4oc3=O)n2NC(=O)c2ccccc2OC)cc1
(T) COc1ccc(C(=O)Nn2c(-c3cc4ccccc4oc3=O)cs/c2=N\c2ccc(Cl)c(Cl)c2)c(OC)c1
Query block: Reorder: IC50, max to min. Please respond by ranking the labels in the order requested.
Result block: S, Q, P, T, R
(S: 16.2 µM, Q: 9.45 µM, P: 3.6 µM, T: 2.5 µM, R: 0.78 µM)

###

methodDescription: Inhibition of alpha-glucosidase (unknown origin) using PNP glycoside as substrate preincubated for 30 mins followed by substrate addition after 60 mins by spectrophotometric analysis
Design: species or system Homo sapiens
measureName: IC50 (µM)

Guide cases for IC50, answers given:
COc1ccc(/N=c2\scc(-c3cc4ccccc4oc3=O)n2NC(=O)c2ccccc2)cc1
6.5
COc1cc(OC)cc(C(=O)Nn2c(-c3cc4ccccc4oc3=O)cs/c2=N\c2cccc(Br)c2)c1
9.19
COc1ccc(/N=c2\scc(-c3cc4ccccc4oc3=O)n2NC(=O)c2ccc(C)cc2C)cc1
2.9

(a) COc1ccc(/N=c2\scc(-c3cc4ccccc4oc3=O)n2NC(=O)c2cc(OC)cc(OC)c2)cc1
(b) O=C(Nn1c(-c2cc3ccccc3oc2=O)cs/c1=N\c1cccc(Br)c1)c1ccccc1O
Query block: Lower IC50: a or b ? Lab log: write the label of the selected item as the result.
Result block: b
(b: 4.06 µM, a: 8.1 µM)
